EXPERIMENTAL_TARGET: UniProt P41595
Sequence (P41595 whole entry): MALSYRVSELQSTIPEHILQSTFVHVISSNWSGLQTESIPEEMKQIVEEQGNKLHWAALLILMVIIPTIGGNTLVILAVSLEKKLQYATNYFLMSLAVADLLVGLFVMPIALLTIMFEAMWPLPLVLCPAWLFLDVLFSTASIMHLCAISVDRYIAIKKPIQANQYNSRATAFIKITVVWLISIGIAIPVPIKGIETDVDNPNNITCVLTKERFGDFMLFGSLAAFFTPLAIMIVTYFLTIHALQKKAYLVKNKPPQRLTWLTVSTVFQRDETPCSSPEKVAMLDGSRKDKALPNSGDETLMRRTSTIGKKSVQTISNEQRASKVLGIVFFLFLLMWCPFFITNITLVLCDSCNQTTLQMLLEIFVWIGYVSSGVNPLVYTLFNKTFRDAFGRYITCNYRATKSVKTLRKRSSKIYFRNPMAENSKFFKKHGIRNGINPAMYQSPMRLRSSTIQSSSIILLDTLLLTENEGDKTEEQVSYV
ASSAY_EXPLANATION: Binding affinities towards human cloned 5-hydroxytryptamine 2B receptor in HEK293 cells, using [3H]5-HT as radioligand
Assay type: cell-based
OUTCOME_MEASURE: Ki

Recorded Ki (compound CC1CCN(CC[C@H]2CCCCN2S(=O)(=O)c2cccc3ccccc23)CC1 ): 3980 nM

Just so you know, measured Ki for CC1CCN(CC[C@H]2CCCN2S(=O)(=O)c2cccc3ccccc23)CC1 came out at 2000 nM

---

EXPERIMENTAL_TARGET: D(3) dopamine receptor (Homo sapiens, UniProt P35462)
Sequence (P35462 whole entry): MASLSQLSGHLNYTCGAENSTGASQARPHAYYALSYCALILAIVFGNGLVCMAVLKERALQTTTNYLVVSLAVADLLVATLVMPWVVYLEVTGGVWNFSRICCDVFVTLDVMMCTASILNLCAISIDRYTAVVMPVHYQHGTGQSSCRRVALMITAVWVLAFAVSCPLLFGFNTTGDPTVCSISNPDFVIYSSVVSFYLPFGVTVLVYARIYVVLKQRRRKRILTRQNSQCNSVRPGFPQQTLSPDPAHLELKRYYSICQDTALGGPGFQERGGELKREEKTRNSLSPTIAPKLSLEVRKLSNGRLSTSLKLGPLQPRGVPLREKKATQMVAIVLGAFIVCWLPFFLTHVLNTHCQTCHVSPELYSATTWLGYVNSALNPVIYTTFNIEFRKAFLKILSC
ASSAY_EXPLANATION: Binding affinity towards Dopamine receptor D3 (human cloned receptor) in CHO cells using [125I]iodosulpiride radioligand.
Assign pKi to each entry below.
Field pKi (float): negative decimal logarithm of the concentration in molar.

Kindly note: D(3) dopamine receptor (Homo sapiens, UniProt P35462), CC1CCN(CC[C@H]2CCCN2S(=O)(=O)c2cccc(O)c2)CC1 , pKi value reported: 5.60

Kindly note: D(3) dopamine receptor (Homo sapiens, UniProt P35462), CC1CCN(CC[C@H]2CCCN2S(=O)(=O)c2ccc(Cl)c(Cl)c2)CC1 , pKi value reported: 6.00

D(3) dopamine receptor (Homo sapiens, UniProt P35462) data for CC1CCN(CC[C@H]2CCCN2S(=O)(=O)c2cccc3ccccc23)CC1 ; its pKi: 5.90

I looked up CC1CCN(CC[C@H]2CCCN2S(=O)(=O)c2cccc(Br)c2)CC1 and its pKi for D(3) dopamine receptor (Homo sapiens, UniProt P35462) was 6.20

For the compound CC1CCN(CC[C@H]2CCCCN2S(=O)(=O)c2cccc3ccccc23)CC1 , the measured pKi on D(3) dopamine receptor (Homo sapiens, UniProt P35462) was 6.00

Summary: Cc1cccc(S(=O)(=O)N2CCC[C@@H]2CCN2CCC(C)CC2)c1 , D(3) dopamine receptor (Homo sapiens, UniProt P35462), pKi = 5.90
